target: KRas G12V (Homo sapiens, UniProt P01116, G12V); assay: biochemical; conditions: Binding to KRas (IC50 nM) G12V, TR-FRET displacement, KRas G12V
Sequence (P01116 1-169 isoform P01116-2 G12V): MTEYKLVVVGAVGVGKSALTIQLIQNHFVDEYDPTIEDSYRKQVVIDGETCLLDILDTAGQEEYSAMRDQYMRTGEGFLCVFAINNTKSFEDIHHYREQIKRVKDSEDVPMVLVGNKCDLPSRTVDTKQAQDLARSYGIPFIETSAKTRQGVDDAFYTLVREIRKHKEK
A collection of compounds and their measured IC50

COMPOUND	IC50
CCc1c(F)ccc2cc(O)cc(N3CCc4c(nc(OC[C@@]56CCCN5C[C@H](F)C6)nc4N4CCCn5nc(C(=O)N6CCC7(CCN7)C6)cc5C4)C3)c12 (stereo partly drawn)	< 2 nM
CCc1c(F)ccc2cc(O)cc(N3CCc4c(nc(OC[C@@]56CCCN5C[C@H](F)C6)nc4N4CCCn5nc(C(=O)NC(C)C)c(Cl)c5C4)C3)c12	< 2 nM
CCc1c(F)ccc2cc(O)cc(N3CCc4c(nc(OC[C@@]56CCCN5C[C@H](F)C6)nc4N4CCCn5nc(C(=O)N6CC7CC(C6)N(C)C7)cc5C4)C3)c12 (stereo partly drawn)	< 2 nM
